experiment: Photochemical stability of the compound assessed as compound degradation under 254 nm UV-light exposure in EtOH solution measured after 24 hrs by HPLC analysis; type: physicochemical; conditions: read-out: Drug degradation
value_kind: degraded at 24 h (%)
Dear colleague, please return just the value in %, with no unit written.

Reported degraded at 24 h ( "CC(C)=CCC/C(C)=C/CC/C(C)=C/COc1ccc2ccc(=O)oc2c1" ) = 25.8
